target: T1, Human Factor P (human, UniProt P27918 29-469)
T1 construct: Bought protein (Complement Technology cat# A139) in SET and Biacore; Factor P of human serum in the functional assays; also called FP; human FP
T1 sequence (P27918 29-469 limits assumed): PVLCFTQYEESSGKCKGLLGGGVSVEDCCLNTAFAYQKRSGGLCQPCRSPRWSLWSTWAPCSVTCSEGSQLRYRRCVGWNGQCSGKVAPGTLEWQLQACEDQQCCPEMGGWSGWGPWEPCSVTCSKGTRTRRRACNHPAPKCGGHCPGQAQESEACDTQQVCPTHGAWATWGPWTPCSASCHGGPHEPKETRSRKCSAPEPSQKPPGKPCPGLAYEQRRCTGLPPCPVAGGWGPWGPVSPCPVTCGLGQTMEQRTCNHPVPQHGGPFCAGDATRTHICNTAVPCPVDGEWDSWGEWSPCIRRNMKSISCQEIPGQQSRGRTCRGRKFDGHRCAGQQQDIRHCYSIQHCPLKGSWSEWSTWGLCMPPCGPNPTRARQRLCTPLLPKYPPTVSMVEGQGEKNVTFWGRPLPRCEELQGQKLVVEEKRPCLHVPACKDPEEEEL
methodDescription: Biacore SPR, captured Factor P
quantityName: koff
State the result as a value with its unit after it.

binder	koff
NVS964 (Fab, V domains shown, Disulfide-bridged Fab; also called Fab NVS964) VH: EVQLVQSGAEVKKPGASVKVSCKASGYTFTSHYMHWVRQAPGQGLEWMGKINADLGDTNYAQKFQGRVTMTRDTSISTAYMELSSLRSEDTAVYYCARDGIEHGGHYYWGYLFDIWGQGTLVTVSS VL: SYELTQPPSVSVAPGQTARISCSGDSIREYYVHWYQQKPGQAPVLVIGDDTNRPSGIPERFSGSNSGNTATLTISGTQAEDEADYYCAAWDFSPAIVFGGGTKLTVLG	4e-05 s⁻¹
NVS962-T (Fab, V domains shown, NVS962 with heavy chain N30 replaced with threonine; also called NSV962-T) VH: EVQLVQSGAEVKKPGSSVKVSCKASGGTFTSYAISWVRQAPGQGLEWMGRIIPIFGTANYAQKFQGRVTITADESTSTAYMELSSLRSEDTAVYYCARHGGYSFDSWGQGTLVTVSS VL: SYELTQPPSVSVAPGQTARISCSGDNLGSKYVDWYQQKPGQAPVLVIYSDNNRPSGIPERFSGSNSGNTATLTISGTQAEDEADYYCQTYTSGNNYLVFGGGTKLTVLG	8.35e-05 s⁻¹
NVS805 (Fab, V domains shown) VH: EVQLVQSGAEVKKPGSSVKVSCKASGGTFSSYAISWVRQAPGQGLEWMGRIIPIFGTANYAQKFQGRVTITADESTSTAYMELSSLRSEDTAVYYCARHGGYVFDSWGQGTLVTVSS VL: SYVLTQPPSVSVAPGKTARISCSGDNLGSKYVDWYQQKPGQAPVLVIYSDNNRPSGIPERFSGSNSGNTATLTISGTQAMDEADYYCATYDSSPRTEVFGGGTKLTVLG	9.88e-06 s⁻¹
NVS808 (Fab, V domains shown) VH: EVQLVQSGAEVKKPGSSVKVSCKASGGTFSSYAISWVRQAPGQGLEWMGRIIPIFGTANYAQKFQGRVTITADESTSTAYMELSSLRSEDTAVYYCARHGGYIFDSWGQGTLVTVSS VL: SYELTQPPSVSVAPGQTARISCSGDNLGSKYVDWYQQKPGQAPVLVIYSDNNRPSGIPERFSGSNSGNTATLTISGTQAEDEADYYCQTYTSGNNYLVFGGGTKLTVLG	0.000154 s⁻¹

In: If you can, please state the reported koff value of NVS962-Q (Fab, V domains shown, NVS962 with heavy chain N30 replaced with glutamine (deamidation site removed)) VH: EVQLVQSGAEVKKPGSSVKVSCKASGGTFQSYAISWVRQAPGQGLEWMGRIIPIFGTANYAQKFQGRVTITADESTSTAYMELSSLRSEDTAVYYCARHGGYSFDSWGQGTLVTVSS VL: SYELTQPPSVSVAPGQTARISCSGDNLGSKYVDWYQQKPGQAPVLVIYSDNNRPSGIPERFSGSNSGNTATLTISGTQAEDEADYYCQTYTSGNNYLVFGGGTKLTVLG .
Out: 0.000311 s⁻¹
